Assay Procedure: HPLC lactone stability in presence of DMPC SUV
Assay type: physicochemical
Cond: DMPC SUV, PBS pH 7.4, 37° C, 3 hr, 1 μM drug; read-out: Percentage of Lactone, DMPC, 3 Hr
Reported Property: remaining at 3 h, 1 µM (%)
Give just the number in %; leave the unit off.

Query: Read off the recorded remaining at 3 h, 1 µM for CC[C@@]1(O)C(=O)OCc2c1cc1n(c2=O)Cc2c-1nc1ccccc1c2CNN1CCN(C)CC1
Response: 19
